system: EKVX; assay: NCI tumour cell line growth inhibition, 48 h
Hit rate of the full screen: of about 55,000 sequences, about 2,500 (4.5%) were called active. Only a sample is shown. Potency and affinity values are given separately.
Hi! Could you tag entries with GI50 below 30 µM as True, and those at or above as False? Much appreciated.

[Bis(aminomethyl)pentamethylenesilane]dichloropaltinum(II), CHEMBL2146202    True
cis-Bis[[(trimethylsilyl)methyl]amino]tetrachloroplatinum(IV), CHEMBL2146191    True
[Bis(aminomethyl)diethylsilane]tetrachloroplatinum(IV), CHEMBL2146203    False
[Bis(aminomethyl)tetramethylenesilane]tetrachloropaltinum(IV), CHEMBL2146189    False

Now turn to the next substance.
Data request: Find out if reported GI50 for CISPLATIN, CHEMBL11359 is less than 30 µM
Data returned: True
